Just for reference, ChEMBL document CHEMBL5303304 is where these values come from.

- Tested on: HEK-293T
- test method notes: Incucyte cell viability with HEK293T; note: unitless GR value; below 1 slowed growth and below 0 cell loss
- Assay type: toxicity, cell-based
- experimental setup: human, 0 h, 10 µM, compound concentration 10 uM, replicate number 2
Tag: Condition met if measured Growth Rate is not below -0.1, Condition not met if it is.

Query block: Identify whether the reported Growth Rate of the following molecule is -0.1 or greater: `CN[C@@H]1CC[C@@H](c2ccc(Cl)c(Cl)c2)c2ccccc21.Cl`
Result block: Condition not met

Query block: // same read-out, input: `CNC(=O)COc1cc2cc(Nc3nc(N4C[C@H](C)C[C@H](C)C4)ncc3Cl)ccc2n(C)c1=O`
Result block: Condition met

Query block: // same read-out, input: `Cc1cc(CN)cc(C)c1-c1ncn(C)c1-c1cncn1C.Cl`
Result block: Condition met

Query block: // same read-out, input: `C[C@@H](CN1CCC(Cc2ccccc2)CC1)[C@@H](O)c1ccc(O)cc1`
Result block: Condition met

Query block: // same read-out, input: `O=C1NC(=NCc2cccs2)SC1=Cc1ccc2ncccc2c1`
Result block: Condition not met

* * *

Assign Growth Rate to each entry below.
- System: HEK-293T
- test method notes: Incucyte cell viability with HEK293T; note: unitless GR value; below 1 slowed growth and below 0 cell loss
- Assay type: toxicity, cell-based
- experimental setup: human, 6 h, 10 µM, compound concentration 10 uM, replicate number 2
Give bare numbers.

Previously resolved entries follow.
[[record]]
test_smiles = "CC(=O)N(CCN(C)C)c1ccc(N/C(=C2\\C(=O)Nc3cc(Cl)ccc32)c2ccccc2)cn1"
result_number = -0.92

[[record]]
test_smiles = "O=C(Nc1cc(-c2cn[nH]c2)ccc1N1CCOCC1)c1ccc(-c2ccc3ncccc3c2)o1"
result_number = -0.29


For each entry beneath this line, provide reported Growth Rate.
1. CC[C@H](CC(=O)O)n1c(=O)c2ncccc2n(Cc2cn(C)c3cc(C)cc(C)c23)c1=O
2. CCCOc1cnc(CN/C=C2\C(=O)NC(=O)c3ccc(I)cc32)cc1O
3. Cn1cncc1-c1cn(-c2cccc(C(=O)Nc3cccc(C(F)(F)F)c3)c2)nn1

Result block:
0.45
-0.9
-0.41

* * *

- System: U2OS
- test method notes: Incucyte cell viability with U2OS; note: unitless GR value; below 1 slowed growth and below 0 cell loss
- Assay type: toxicity, cell-based
- experimental setup: human, 24 h, 10 µM, compound concentration 10 uM, replicate number 1
Growth Rate vs 0.9: less than gives Condition met; not less than gives Condition not met.

Query block: Problem: For the molecule `CN(CC(=O)Nc1ccc(F)c(F)c1F)C(=O)c1ccc2c(c1)OCCO2` , is Growth Rate under 0.9?
Result block: Condition not met

Query block: // same read-out, input: `Cc1nccc(COC(=O)N2C[C@@H]3[C@@H](CNC(=O)c4ccc5[nH]nnc5c4)[C@@H]3C2)n1`
Result block: Condition met

Query block: // same read-out, input: `Cc1c(N2CCCC2)nc2ccc(Br)cc2c1C(=O)NC[C@H](CCC(=O)O)c1ccccc1Cl`
Result block: Condition not met

Query block: // same read-out, input: `Cl.Clc1cc2cc(c1)-c1cnn3ccc(nc13)NCCOCCO2`
Result block: Condition not met

Query block: // same read-out, input: `O=C(O)CCCCN(CCc1ccccc1OCc1ccc(CCc2ccccc2)cc1)Cc1ccc(C(=O)O)cc1`
Result block: Condition met

Query block: // same read-out, input: `O=C(NC1CCNCC1)c1n[nH]cc1NC(=O)c1c(Cl)cccc1Cl`
Result block: Condition met

Query block: // same read-out, input: `CC(C)[C@H](C(=O)Nc1ccc(C(=O)NO)cc1)c1ccccc1`
Result block: Condition met

Query block: // same read-out, input: `Cc1c(CN2CCC3(CC2)CN(c2ncnc4sc(CC(F)(F)F)cc24)C3)ccc2c1cc(C#N)n2CC(N)=O`
Result block: Condition not met

Query block: // same read-out, input: `Cc1ccc(-c2cn3nc(C(=O)NC4(c5ccc(F)cc5)CN(C)C4)c(C(C)C)c3c(=O)[nH]2)cc1C`
Result block: Condition met

Query block: // same read-out, input: CCOc1cc(CC(=O)N[C@@H](CC(C)C)c2ccccc2N2CCCCC2)ccc1C(=O)O [REPAGLINIDE]
Result block: Condition not met

Query block: // same read-out, input: `O=S(=O)(Nc1nnc2cc(OCC34CC5CC(CC(C5)C3)C4)c(C3CC3)cn12)C1CC1`
Result block: Condition not met

Query block: // same read-out, input: `O=C(O)/C=C/c1ccc(Cn2ccnc2)cc1`
Result block: Condition not met

Query block: // same read-out, input: `FC(F)(F)c1ccc(Nc2ncnc3cc(-c4ncccc4C(F)(F)F)ccc23)cc1`
Result block: Condition not met

Query block: // same read-out, input: `CC(C)(C)c1cc(C(C)(C)C)c(NC(=O)c2c[nH]c3ccccc3c2=O)cc1O`
Result block: Condition not met

Query block: // same read-out, input: `COC1(C#Cc2ccc(Cl)c(-c3ncc4c(n3)-c3sc(NC(C)=O)nc3CC4)c2)CCN(C)CC1`
Result block: Condition met

Query block: // same read-out, input: `C[C@H](CCOc1cccc(CC(=O)O)c1)N(Cc1cccc(C(F)(F)F)c1Cl)CC(c1ccccc1)c1ccccc1.Cl`
Result block: Condition not met

Query block: // same read-out, input: `CCC(=O)N[C@H]1CC[C@@H](C(=O)N(C)c2ccc(-c3nc4ccccc4o3)cc2)C1`
Result block: Condition met

Query block: // same read-out, input: `O=C(O)C[C@H]1CCn2c1c(Sc1ccc(Cl)cc1)c1ccc(F)cc12`
Result block: Condition not met

Query block: // same read-out, input: `CN1CCCN(C(=O)c2cccc(-c3ccc(/C=C4/C(=O)Nc5ccc(Cl)cc54)o3)c2)CC1`
Result block: Condition met

Query block: // same read-out, input: `Cc1nsc(Nc2cnc(C(F)(F)F)cn2)c1C(=O)Nc1ccc(O[C@H]2CCCN(CC(F)(F)F)C2)nc1`
Result block: Condition met

Query block: // same read-out, input: `COc1cc(F)ccc1-c1ncnc(Nc2cccc(C[S@](C)(=N)=O)c2)n1`
Result block: Condition met

Query block: // same read-out, input: `COCc1c(-c2cc3cc(C)cc(OC)c3s2)c2c(N)ncnn2c1CN[C@@H]1CCNC1=O`
Result block: Condition met

Query block: // same read-out, input: `Oc1c(-c2cccnc2)cnn1-c1ccccn1`
Result block: Condition met

* * *

- System: Fibroblast
- test method notes: Incucyte cell viability with human fibroblast; note: unitless GR value; below 1 slowed growth and below 0 cell loss
- Format: toxicity, cell-based
- experimental setup: 18 h, 10 µM, compound concentration 10 uM, replicate number 2
Assign Growth Rate to each entry below.
Give bare numbers.

Previously resolved entries follow.
[[record]]
compound = "COc1ccc(CC(=O)NC(N/C(=N/C#N)Nc2cccc3ncccc23)C(C)(C)C)cc1OC (centres undefined)"
result_number = 0.81

[[record]]
compound = "C[C@@H]1C[C@H](C)CN(c2ncc(Cl)c(Nc3ccc4c(c3)cc(OC(C)(C)C(=O)O)c(=O)n4C)n2)C1"
result_number = 0.8

[[record]]
compound = "N[C@@H](Cn1cc(F)c(=O)[nH]c1=O)C(=O)O"
result_number = 0.82


Next, consider the following compound.
Query block: Which value of Growth Rate has been reported for `Cc1cc(-c2nncc3c(C(C)(C)C)c(OCc4ncnn4C)nn23)no1` in the records?
Result block: 0.78

* * *

- Test system: Fibroblast
- test method notes: Incucyte cell viability with human fibroblast; note: unitless GR value; below 1 slowed growth and below 0 cell loss
- Type: toxicity, cell-based
- experimental setup: 18 h, 10 µM, compound concentration 10 uM, replicate number 1
Assign Growth Rate to each entry below.
Give bare numbers.

Previously resolved entries follow.
[[record]]
compound = "CCN1C(=O)N(c2c(F)c(OC)cc(OC)c2F)Cc2cnc3[nH]c(CN4CCOCC4)cc3c21 [PEMIGATINIB]"
result_number = 0.23

[[record]]
compound = "C/C=C1\\C(=O)CC2C3CCC4=CC(=O)CC[C@]4(C)C3CC[C@]12C (stereo not given in full)"
result_number = 0.64

[[record]]
compound = "CC(C)[C@H](C(=O)Nc1ccc(C(=O)NO)cc1)c1ccccc1 [AR-42]"
result_number = -0.41

[[record]]
compound = "C[C@H](CCOc1cccc(CC(=O)O)c1)N(Cc1cccc(C(F)(F)F)c1Cl)CC(c1ccccc1)c1ccccc1.Cl"
result_number = 0.83

[[record]]
compound = "CN(C)[C@H]1CCN(c2cc(C(F)(F)F)c(C#N)c(Nc3cccc(CCC(=O)O)c3)n2)C1.O=C(O)C(F)(F)F"
result_number = 0.99


For each entry beneath this line, provide reported Growth Rate.
1. CCOC(=O)C1=C(C)NC(C)=C(C(=O)OC)C1c1cccc([N+](=O)[O-])c1 (stereo not given) [NITRENDIPINE]
2. CCOC(=O)c1c(/C(C#N)=C\N)c2ccc(Cl)c(Cl)c2n1C
3. COc1ccc(-c2coc3cc(O)cc(O)c3c2=O)cc1 [BIOCHANIN]

Result block:
1. -0.02
2. 0.7
3. 0.21

For each entry beneath this line, provide reported Growth Rate.
1. CC(CNS(=O)(=O)C(C)C)c1ccc(-c2ccc(C#N)cc2)cc1 (stereo not given)
2. COc1cc(C(=O)NCCOCCOCCOCC(=O)N[C@H](C(=O)N2C[C@H](O)C[C@H]2C(=O)NCc2ccc(-c3scnc3C)cc2)C(C)(C)C)ccc1Nc1ncc(C(F)(F)F)c(Oc2cccc3c2C(=O)CC3)n1
3. C[C@@H](COCCC(=O)N1CCN(c2ncc(C(F)(F)F)cn2)CC1)Nc1cn[nH]c(=O)c1C(F)(F)F [ATAMPARIB]

Result block:
-0.2
0.28
0.22

For each entry beneath this line, provide reported Growth Rate.
1. COc1cc(N2CCC(N3CCN(C)CC3)CC2)ccc1Nc1ncc(Cl)c(Nc2ccccc2S(=O)(=O)C(C)C)n1 [TAE-684]
2. CN(C)C(=O)Cn1cc(-c2nc(C3(c4ccc(-c5cnc(N)nc5)cc4)CC3)no2)cn1 [BI 0153]

Result block:
[0.29, 0.91]
